System under test: HLA-A*30:02
Measurement description: IEDB peptide-MHC binding, purified MHC/competitive/radioactivity; filed as Kd, often an IC50 or EC50 that approximates it; bounds were set here for any values at or beyond the usual limits of such assays
Conditions used: source organism: SARS coronavirus Tor2
pKd: −log10 of the molar value.
pKd: recorded values

Example sequences with recorded pKd:
QUERY: Please report the recorded pKd for NTCDGNTFTY .
RESULT: ≤ 3.90

QUERY: Try the sequence LFCLLNRYF
RESULT: ≤ 4.09

QUERY: Try the sequence PYPDPSRIL
RESULT: ≤ 4.12

QUERY: Try the sequence YYFMKFRRVF
RESULT: ≤ 4.65

More entries:
QUERY: Please report the recorded pKd for IYNEKVAGF .
RESULT: ≤ 4.64

QUERY: Try the sequence HYVRITGLY
RESULT: ≤ 4.56

QUERY: Try the sequence NMLRIMASL
RESULT: ≤ 4.00

QUERY: Try the sequence LFFFVYENAF
RESULT: ≤ 4.29

###

System under test: HLA-B*44:02
Measurement description: IEDB peptide-MHC binding, purified MHC/competitive/radioactivity; filed as Kd, often an IC50 or EC50 that approximates it; bounds were set here for any values at or beyond the usual limits of such assays
Conditions used: source organism: Mammarenavirus lassaense
pKd: −log10 of the molar value.
Metric: pKd

QUERY: HLA-B*44:02 / pKd / GDVELLGTT : value?
RESULT: ≤ 4.38

QUERY: Try the sequence FESYVRPFVA
RESULT: ≤ 4.15

Please examine the following record next.
QUERY: HLA-B*44:02 / pKd / FDAAASGGL : value?
RESULT: ≤ 4.11

###

System under test: HLA-A*03:01
Measurement description: IEDB peptide-MHC binding, purified MHC/competitive/radioactivity; filed as Kd, often an IC50 or EC50 that approximates it; bounds were set here for any values at or beyond the usual limits of such assays
Conditions used: source organism: Vaccinia virus WR
Rule: Kd below 3 µM gives condition met. Equal to or above 3 µM gives condition not met.

QUERY: Is the reported Kd for TSEKYSKGYK strictly below 3 µM?
RESULT: condition not met

QUERY: Try the sequence RSNAILHNIY
RESULT: condition not met

QUERY: Try the sequence IISRTRLYDY
RESULT: condition met

QUERY: Try the sequence LIDLAFLIK
RESULT: condition not met

QUERY: Try the sequence NLDLFMSHVK
RESULT: condition met

QUERY: Try the sequence NIRLTDTEY
RESULT: condition not met

QUERY: Try the sequence ATKRYPGVMY
RESULT: condition met

QUERY: Try the sequence KVVKKLSVIR
RESULT: condition not met

More entries:
QUERY: Is the reported Kd for NFFVFIHMVR strictly below 3 µM?
RESULT: condition met

QUERY: Try the sequence LIVSLCPTKK
RESULT: condition met

QUERY: Try the sequence SVTKSSSWK
RESULT: condition met

QUERY: Try the sequence TSETMYLTMK
RESULT: condition met

QUERY: Try the sequence DAVRAFLLR
RESULT: condition not met

QUERY: Try the sequence MINYYNEMSR
RESULT: condition met

QUERY: Try the sequence LSTLNFNNLR
RESULT: condition not met

QUERY: Try the sequence NTPVSMTYLY
RESULT: condition not met

QUERY: Try the sequence LIIGPMFSGK
RESULT: condition met
